Tested on: HCC 2998
Experiment: NCI tumour cell line growth inhibition, 48 h
Activity calls are given as the source filed them. Rule as the data show it: active = GI50 up to about 1.1 µM and inactive = higher.
Parameter GI50: see the listing below.

{"COMPOUND": "CN(C)C(=O)C(F)(F)C(c1ccccc1)C1C(=O)N(C)C(=O)N(C)C1=O (stereo unspecified)", "GI50": "> 100 µM (inactive)"}
{"COMPOUND": "Cc1c(C(=O)OCc2ccccc2)[n+]([O-])c2ccccc2[n+]1[O-]", "GI50": "30.8 µM (inactive)"}
{"COMPOUND": "O=C1CC2C=CC(O)C(C1)C2 (stereo unspecified)", "GI50": "> 100 µM (inactive)"}
{"COMPOUND": "CCc1c[n+]([O-])c(C)cc1[N+](=O)[O-]", "GI50": "24.3 µM (inactive)"}
{"COMPOUND": "O=[N+]([O-])c1ccc(C2CC(c3ccccc3Cl)=Nc3ccccc3S2)cc1 (stereo unspecified)", "GI50": "23.9 µM (inactive)"}
{"COMPOUND": "COc1ccc(-c2cc(-c3ccc(Cl)cc3)n(C3OC(CO)C(O)C(O)C3O)c(=S)c2C#N)cc1 (stereo unspecified)", "GI50": "64.9 µM (inactive)"}

src = ChEMBL document CHEMBL1201862
